Target: T1, CD25 (R&D systems cat. #223-2A/CF) (UniProt P01589 22-213, limits assumed)
T1 construct: Bought soluble protein
T1 sequence (looked up): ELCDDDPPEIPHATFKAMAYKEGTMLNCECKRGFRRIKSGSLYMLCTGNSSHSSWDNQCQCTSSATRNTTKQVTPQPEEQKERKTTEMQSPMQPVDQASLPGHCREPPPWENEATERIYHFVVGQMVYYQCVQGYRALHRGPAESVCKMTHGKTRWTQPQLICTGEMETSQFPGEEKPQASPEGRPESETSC
Assay: Biacore (SPR); antibody captured on Protein A, CD25 injected
Would you kindly list pKd for each of these binders?
Answers are plain numbers, as −log10 of the molar value.

Please review the entries below; each comes with its answer.
binder	pKd
anti-CD25 H1L1.5 (antibody, V domains shown, Single variant in the anti-CD25 H1L1 background; also called VL Q1E single variant) VH: QVQLVQSGAEVKKPGASVKVSCKASGYTFTSYRMHWVRQAPGQGLEWMGYINPSTGYTEYNQKFQGRVTITADKSISTAYMELSRLRSDDTAVYYCARGGGVFDYWGQGTLVTVSS VL: EIVLTQSPATLSLSPGERATLSCRASSSISYMHWFQQKPGQSPQLLIYTTSNLASGVPARFSGSGSGTDYTLTISSLQPEDFAVYYCHQRSTYPLTFGSGTKLEIK	9.54
anti-CD25 H1L1.9 (antibody, V domains shown, Single variant in the anti-CD25 H1L1 background; also called VL S43A single variant) VH: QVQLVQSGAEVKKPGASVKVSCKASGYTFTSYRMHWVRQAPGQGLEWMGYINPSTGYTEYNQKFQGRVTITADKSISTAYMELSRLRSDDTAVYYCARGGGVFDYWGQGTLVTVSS VL: QIVLTQSPATLSLSPGERATLSCRASSSISYMHWFQQKPGQAPQLLIYTTSNLASGVPARFSGSGSGTDYTLTISSLQPEDFAVYYCHQRSTYPLTFGSGTKLEIK	9.51

Moving on to the next binder.
Give the reported value of pKd for this record: anti-CD25 H1L1.14 (antibody, V domains shown, Single variant in the anti-CD25 H1L1 background; also called VL Y71F single variant) VH: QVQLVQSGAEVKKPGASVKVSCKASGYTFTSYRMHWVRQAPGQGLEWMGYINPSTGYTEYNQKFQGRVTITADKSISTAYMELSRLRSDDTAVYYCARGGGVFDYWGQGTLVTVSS VL: QIVLTQSPATLSLSPGERATLSCRASSSISYMHWFQQKPGQSPQLLIYTTSNLASGVPARFSGSGSGTDFTLTISSLQPEDFAVYYCHQRSTYPLTFGSGTKLEIK
9.57
